# measured target: T1, EXD3 FL(D399A) (Homo sapiens, UniProt Q8N9H8 1-876, D399A)
# T1 sequence: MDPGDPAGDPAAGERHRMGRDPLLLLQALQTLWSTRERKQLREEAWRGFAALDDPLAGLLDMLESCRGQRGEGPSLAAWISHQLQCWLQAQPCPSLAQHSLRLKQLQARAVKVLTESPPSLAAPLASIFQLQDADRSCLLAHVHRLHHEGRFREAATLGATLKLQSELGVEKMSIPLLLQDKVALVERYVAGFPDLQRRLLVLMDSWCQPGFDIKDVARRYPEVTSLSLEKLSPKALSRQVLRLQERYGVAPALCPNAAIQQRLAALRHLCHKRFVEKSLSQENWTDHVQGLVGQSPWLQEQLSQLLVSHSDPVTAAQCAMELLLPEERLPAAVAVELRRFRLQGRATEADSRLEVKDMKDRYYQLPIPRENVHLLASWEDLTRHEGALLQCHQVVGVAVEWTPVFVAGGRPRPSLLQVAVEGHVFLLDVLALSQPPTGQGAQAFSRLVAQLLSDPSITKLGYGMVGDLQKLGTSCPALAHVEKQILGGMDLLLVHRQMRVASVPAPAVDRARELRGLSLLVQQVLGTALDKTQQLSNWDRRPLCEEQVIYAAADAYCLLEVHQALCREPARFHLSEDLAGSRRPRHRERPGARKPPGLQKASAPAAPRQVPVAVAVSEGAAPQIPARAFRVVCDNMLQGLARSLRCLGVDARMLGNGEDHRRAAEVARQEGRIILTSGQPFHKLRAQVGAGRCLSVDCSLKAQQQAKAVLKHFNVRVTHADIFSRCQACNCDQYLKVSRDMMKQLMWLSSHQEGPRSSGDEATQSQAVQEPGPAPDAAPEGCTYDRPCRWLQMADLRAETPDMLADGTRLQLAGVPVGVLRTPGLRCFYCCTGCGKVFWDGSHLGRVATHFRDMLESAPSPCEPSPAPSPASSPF
# test summary: fluorescence polarization; 250 mM NaCl; Hill h 1.029; FP, 50 nM RNA, 30 min, room temperature; C. elegans proteins: 20 mM HEPES/NaOH pH 7.5, 150 mM NaCl, 10% glycerol, 5 mM EDTA; human proteins: 20 mM HEPES/NaOH pH 7.5, 250 mM NaCl
# measurement conditions: protein: recombinant; label: 5'-FAM; single strand
measured property: pKd
Notebook: values listed as pKd are -log10 of the concentration (mol/L).

query: Name the recorded pKd of the binder listed here: GUUGAUUGAAGAGUUC (ssRNA) [16-mer ssRNA]
result: 5.73
